test system: T1, human MSLN-R3 on HEK293T-hMSLN-R3 recombinant cells (human, UniProt Q13421 487-606)
T1 construct: the C-terminal limit is uncertain; also called human MSLN-R3 membrane protein
T1 sequence (Q13421 495-614): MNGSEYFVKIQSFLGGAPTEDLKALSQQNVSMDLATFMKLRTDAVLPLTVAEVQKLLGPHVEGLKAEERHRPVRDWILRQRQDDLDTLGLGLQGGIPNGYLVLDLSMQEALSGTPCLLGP
measurement description: FACS, HEK293T-hMSLN-R3 cells
Listed binders paired with reported Maximum_MFI
recorded metric: Maximum_MFI (MFI)

INSERT INTO measurements (binder, recorded_metric, assay_value) VALUES
  ('F7.33.24-H12 (scFv, not shown: small tags and cut ends, also called S009-F7.33.24 humanized antibody VH2a + VL3) scFv: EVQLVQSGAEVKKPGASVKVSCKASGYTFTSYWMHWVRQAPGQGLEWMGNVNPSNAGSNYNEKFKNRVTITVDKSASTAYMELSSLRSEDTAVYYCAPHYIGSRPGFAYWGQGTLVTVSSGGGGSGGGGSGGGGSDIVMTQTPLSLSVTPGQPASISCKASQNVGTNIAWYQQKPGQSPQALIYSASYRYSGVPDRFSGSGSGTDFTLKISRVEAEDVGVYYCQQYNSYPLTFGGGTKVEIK', 'Maximum_MFI', 1330),
  ('F7.33.24-H5 (scFv, not shown: small tags and cut ends, also called S009-F7.33.24 humanized antibody VH1a + VL2) scFv: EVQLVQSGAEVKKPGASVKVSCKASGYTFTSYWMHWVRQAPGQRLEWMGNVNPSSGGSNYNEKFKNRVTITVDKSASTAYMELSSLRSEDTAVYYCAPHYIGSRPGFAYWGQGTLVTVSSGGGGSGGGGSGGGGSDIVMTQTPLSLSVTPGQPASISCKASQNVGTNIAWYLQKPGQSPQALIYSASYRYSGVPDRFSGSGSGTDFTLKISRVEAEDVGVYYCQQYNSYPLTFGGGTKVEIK', 'Maximum_MFI', 1470),
  ('F7.33.24 (scFv) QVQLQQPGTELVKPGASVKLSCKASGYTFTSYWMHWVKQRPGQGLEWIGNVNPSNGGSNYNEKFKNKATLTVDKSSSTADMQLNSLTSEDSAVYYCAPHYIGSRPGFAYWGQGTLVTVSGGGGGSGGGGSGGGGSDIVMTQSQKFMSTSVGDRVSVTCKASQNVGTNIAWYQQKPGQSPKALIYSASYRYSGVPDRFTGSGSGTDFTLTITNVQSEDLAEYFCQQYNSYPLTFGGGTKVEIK', 'Maximum_MFI', 1490);
